target: Poly(ADP-ribose) glycohydrolase (Homo sapiens); assay: Inhibition of PARG in human HeLa cells assessed as induction of MMS-induced PAR chains preincubated for 1 hr followed by MMS addition and measured after 1 hr by Alexofluor 488-conjugated secondary antibody and Hoechst 33342 staining based assay; type: cell-based
Sequence (Q86W56 whole entry): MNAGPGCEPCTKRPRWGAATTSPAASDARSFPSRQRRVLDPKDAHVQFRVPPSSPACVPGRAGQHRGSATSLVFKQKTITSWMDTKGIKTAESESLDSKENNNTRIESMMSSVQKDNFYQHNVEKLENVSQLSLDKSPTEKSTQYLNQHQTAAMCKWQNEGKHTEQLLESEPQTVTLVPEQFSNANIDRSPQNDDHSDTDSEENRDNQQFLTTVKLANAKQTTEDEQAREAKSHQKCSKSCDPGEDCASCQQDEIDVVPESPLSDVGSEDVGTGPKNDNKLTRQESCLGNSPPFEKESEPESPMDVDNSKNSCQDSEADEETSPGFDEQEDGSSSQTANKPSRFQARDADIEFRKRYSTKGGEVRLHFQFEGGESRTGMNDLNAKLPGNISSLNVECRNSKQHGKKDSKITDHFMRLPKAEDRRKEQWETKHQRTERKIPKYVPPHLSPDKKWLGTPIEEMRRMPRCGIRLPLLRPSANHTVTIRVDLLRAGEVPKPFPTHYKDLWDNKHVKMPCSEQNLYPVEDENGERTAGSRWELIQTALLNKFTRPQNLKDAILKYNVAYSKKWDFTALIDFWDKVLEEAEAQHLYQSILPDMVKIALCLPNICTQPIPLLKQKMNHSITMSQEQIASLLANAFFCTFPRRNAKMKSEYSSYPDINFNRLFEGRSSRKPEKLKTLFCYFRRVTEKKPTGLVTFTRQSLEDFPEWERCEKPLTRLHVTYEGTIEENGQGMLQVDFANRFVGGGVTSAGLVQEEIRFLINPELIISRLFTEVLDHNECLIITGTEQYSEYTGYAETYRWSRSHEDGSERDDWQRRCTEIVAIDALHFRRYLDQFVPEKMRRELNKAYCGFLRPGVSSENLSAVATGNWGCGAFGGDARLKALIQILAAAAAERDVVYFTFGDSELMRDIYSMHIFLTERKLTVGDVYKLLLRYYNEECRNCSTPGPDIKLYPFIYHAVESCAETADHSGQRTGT
assay readout: EC50 (µM)

• CN(C)CCn1c(=O)n(C)c(=O)c2cc(S(=O)(=O)NC3(C)CC3)ccc21 = 6.4
• C#CCn1c(=O)n(Cc2cnn(C)c2)c(=O)c2cc(S(=O)(=O)NC3(C)CC3)ccc21 = 0.13
• CC1(NS(=O)(=O)c2ccc3c(c2)C(=O)c2ccccc2C3=O)CC1 = 6.6
• COCCn1c(=O)n(C)c(=O)c2cc(S(=O)(=O)NC3(C)CC3)ccc21 = 6.1
• Cn1c(=O)c2cc(S(=O)(=O)NC3(C)CC3)ccc2n(CC#N)c1=O = 8.9

I: Cn1c(=O)[nH]c2ccc(S(=O)(=O)NC3(C)CC3)cc2c1=O
II: Cn1c(=O)c2cc(S(=O)(=O)NC3(C)CC3)ccc2n(CC2CCCCC2)c1=O
III: CCn1c(=O)c2cc(S(=O)(=O)NC3(C#N)CC3)ccc2n(CC)c1=O
IV: O=C1c2ccccc2C(=O)c2cc(S(=O)(=O)NC3CC3)ccc21
V: CCn1c(=O)c2cc(S(=O)(=O)NC3(C)CC3)ccc2n(CC)c1=O
# sort list by recorded EC50, greatest to least # answer = labels listed in requested order
IV, I, III, II, V

###

biological target: UniProt:Q86W56; test: Inhibition of human full length PARG using Bt-NAD ribosylated PARP1 substrate after 10 mins by TR-FRET assay
assay readout: EC50 (nM)

• COc1cccc(Cn2c(=O)n(C)c(=O)c3cc(S(=O)(=O)NC4(C)CC4)ccc32)c1 = 860

P: COCCn1c(=O)n(C)c(=O)c2cc(S(=O)(=O)NC3(C)CC3)ccc21
Q: Cn1c(=O)n(Cc2csnn2)c(=O)c2cc(S(=O)(=O)NC3(C)CC3)ccc21
Min EC50? P | Q Answer with the label corresponding to your selection.
P

###

target: UniProtKB Q86W56; experiment: Inhibition of human full length PARG using Bt-NAD ribosylated PARP1 substrate after 10 mins by TR-FRET assay
assay readout: EC50 (µM)

- Cn1c(=O)n(Cc2cnc(N)s2)c(=O)c2cc(S(=O)(=O)NC3(C)CC3)ccc21: 0.48

a: Cn1c(=O)n(CC2CC2)c(=O)c2cc(S(=O)(=O)NC3(C)CC3)ccc21
b: Cn1c(=O)n(Cc2cnn(CC#N)c2)c(=O)c2cc(S(=O)(=O)NC3(C)CC3)ccc21
I'd appreciate it if you could identify which of a and b has the greater EC50. Answer with the label corresponding to your selection.
a
(a: 4.6 µM, b: 0.37 µM)

A: Cn1c(=O)n(CC#N)c(=O)c2cc(S(=O)(=O)NC3(C)CC3)ccc21
B: Cc1cc(Cn2c(=O)n(Cc3cnc(C)s3)c(=O)c3cc(S(=O)(=O)NC4(C)CC4)ccc32)n(C)n1
C: Cn1c(=O)c2cc(S(=O)(=O)NC3(C)CC3)ccc2n(Cc2ccccn2)c1=O
D: Cn1c(=O)c2cc(S(=O)(=O)NC3(C)CC3)ccc2n(CC2CC2)c1=O
# sort list by recorded EC50, greatest to least # answer = labels listed in requested order
C, A, D, B
